B1: TPR 5TU (parent)
chain: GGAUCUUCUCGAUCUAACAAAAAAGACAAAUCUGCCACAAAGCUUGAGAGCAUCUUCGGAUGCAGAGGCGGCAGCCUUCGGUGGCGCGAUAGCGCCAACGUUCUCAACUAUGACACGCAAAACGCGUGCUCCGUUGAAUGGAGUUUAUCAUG

Variants of: B1
Assay remarks: polymerase ribozyme fitness, log enrichment relative to wild type (log ratio); higher = more active; in vitro selection for triplet polymerase activity
This sample holds only a part of the variants without activity.
Recorded metric: polymerase ribozyme fitness (log ratio)

• U13G C54G = -3.62
• C14U U56G G83U C95U C116U = -3.87
• A21C G25C U53A = -3.09
• G62A G65A G117U U144A = -3.79
• G46A U55A = -0.993
• G34U U56A = -1.7
• C5G G71U = -3.09
• C14G U82A G84A C87U C118G = -3.78
• A41C U135G = -3.54
• C76A G83A = -2.85
• A49G A113U = -2.42
• G25U C85U U101C = -2.41
• U31G A52U A60G A98G = -4
• C38G C123A = -0.288
• A41G C54G U104A A119G G126U = -1.16
• G50C G59A U145C = -3.51
• U33G U56C G81C C95U = -3.74
• U55C C85U A97U = -1.16
• U102C A120U G140C = -3.56
• A3C C36U G83A = -3.09

The reported numbers originate from the RNAGym collection of RNA variant scans (doi:10.1073/pnas.2313332121).
